Target: PNK-FHA (FHA domain of human polynucleotide kinase 3'-phosphatase, amino acids 1-109) (human)
Assay: ITC
// values below are reported pKd
Just the number, please; pKd means minus log10 of the concentration in mol/L.

Some solved cases for reference:
substance | measured.result
XRCC1 peptide YAGpSpTDENTDSE, phosphorylated on Ser518 and Thr519 | 5.91
XRCC1 peptide YAGSTDENpTDSE, phosphorylated on Thr523 | 4.87

# next substance below
Entry under test: XRCC1 peptide YAGSpTDENTDSE, phosphorylated on Thr519 . Its pKd was 4.98
